molecular target: BCRP (Homo sapiens, UniProt Q9UNQ0); construct: The cDNA encoding respective transporters were synthetized and cloned by GenScript; host or cells: HEK293 (lentiviral transduction), membrane vesicles; experiment: Vesicular transport inhibition assay, BCRP membrane vesicles; format: biochemical; conditions: oxindole alkaloids; substrate E3S; listed as Isopteropodine; read-out: IC50 (95% CI of IC50)
Sequence (Q9UNQ0 whole entry): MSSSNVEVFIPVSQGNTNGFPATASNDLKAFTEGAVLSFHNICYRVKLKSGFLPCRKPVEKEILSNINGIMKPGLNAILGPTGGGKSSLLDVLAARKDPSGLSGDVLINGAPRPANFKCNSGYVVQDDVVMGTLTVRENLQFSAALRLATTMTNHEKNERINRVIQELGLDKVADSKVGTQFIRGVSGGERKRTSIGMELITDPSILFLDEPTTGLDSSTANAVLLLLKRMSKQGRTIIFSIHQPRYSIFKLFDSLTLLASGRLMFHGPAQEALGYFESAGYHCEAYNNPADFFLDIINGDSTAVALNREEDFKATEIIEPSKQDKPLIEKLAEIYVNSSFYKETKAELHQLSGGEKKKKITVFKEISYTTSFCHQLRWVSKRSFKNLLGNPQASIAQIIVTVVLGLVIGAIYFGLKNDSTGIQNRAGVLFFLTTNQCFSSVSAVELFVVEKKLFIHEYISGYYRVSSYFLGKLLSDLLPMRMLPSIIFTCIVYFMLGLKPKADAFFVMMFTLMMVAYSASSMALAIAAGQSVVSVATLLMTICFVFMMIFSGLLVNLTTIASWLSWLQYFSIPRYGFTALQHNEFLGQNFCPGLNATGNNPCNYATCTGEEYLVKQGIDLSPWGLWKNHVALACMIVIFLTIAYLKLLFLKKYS
pIC50: −log10 of the molar value.
measured.quantity: pIC50

                                   compound  measured
0  COC(=O)C1=CO[C@@H](C)[C@@H]2CN3CC[C@@]4(C(=O)Nc5ccccc54)[C@@H]3C[C@H]12 [isopteropodine]      4.26

---

molecular target: OATP2B1 (Homo sapiens, UniProt O94956); construct: expressed in transfected cells; host or cells: HEK293 (lentiviral transduction; cDNA synthesised by GenScript); assay: Uptake inhibition assay, OATP2B1-overexpressing HEK293 cells; type: cell-based; details: oxindole alkaloids; substrate E3S; listed as Isopteropodine; read-out: IC50 (95% CI of IC50)
Sequence (O94956 whole entry): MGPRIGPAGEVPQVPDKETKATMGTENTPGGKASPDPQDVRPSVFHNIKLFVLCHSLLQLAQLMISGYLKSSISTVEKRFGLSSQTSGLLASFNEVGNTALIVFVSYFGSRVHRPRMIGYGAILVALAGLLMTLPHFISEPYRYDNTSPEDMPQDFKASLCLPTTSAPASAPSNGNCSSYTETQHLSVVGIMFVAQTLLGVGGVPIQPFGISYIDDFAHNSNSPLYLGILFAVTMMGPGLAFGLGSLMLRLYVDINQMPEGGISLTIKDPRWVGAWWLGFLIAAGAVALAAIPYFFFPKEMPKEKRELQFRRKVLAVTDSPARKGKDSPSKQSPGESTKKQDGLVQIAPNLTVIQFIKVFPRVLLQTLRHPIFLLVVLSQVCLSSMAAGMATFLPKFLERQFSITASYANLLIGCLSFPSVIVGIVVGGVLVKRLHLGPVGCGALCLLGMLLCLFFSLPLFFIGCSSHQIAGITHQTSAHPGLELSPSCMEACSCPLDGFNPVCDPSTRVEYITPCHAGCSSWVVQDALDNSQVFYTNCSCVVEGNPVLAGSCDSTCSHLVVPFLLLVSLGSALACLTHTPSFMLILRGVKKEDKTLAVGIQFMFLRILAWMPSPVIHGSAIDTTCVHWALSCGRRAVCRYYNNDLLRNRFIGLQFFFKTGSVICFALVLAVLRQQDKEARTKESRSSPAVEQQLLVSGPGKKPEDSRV
measured.quantity: IC50 (µM)

>>> print(df.to_string())
                                   compound  measured
0  COC(=O)C1=CO[C@@H](C)[C@@H]2CN3CC[C@@]4(C(=O)Nc5ccccc54)[C@@H]3C[C@H]12 [isopteropodine]      45.4

---

target: OATP1B3 (Homo sapiens); construct: expressed in transfected cells; host or cells: HEK293 (lentiviral transduction; cDNA synthesised by GenScript); experiment: Uptake inhibition assay, OATP1B3-overexpressing HEK293 cells; format: cell-based; details: oxindole alkaloids; substrate CCK-8; read-out: IC50 (95% CI of IC50)
Sequence (Q9NPD5 whole entry): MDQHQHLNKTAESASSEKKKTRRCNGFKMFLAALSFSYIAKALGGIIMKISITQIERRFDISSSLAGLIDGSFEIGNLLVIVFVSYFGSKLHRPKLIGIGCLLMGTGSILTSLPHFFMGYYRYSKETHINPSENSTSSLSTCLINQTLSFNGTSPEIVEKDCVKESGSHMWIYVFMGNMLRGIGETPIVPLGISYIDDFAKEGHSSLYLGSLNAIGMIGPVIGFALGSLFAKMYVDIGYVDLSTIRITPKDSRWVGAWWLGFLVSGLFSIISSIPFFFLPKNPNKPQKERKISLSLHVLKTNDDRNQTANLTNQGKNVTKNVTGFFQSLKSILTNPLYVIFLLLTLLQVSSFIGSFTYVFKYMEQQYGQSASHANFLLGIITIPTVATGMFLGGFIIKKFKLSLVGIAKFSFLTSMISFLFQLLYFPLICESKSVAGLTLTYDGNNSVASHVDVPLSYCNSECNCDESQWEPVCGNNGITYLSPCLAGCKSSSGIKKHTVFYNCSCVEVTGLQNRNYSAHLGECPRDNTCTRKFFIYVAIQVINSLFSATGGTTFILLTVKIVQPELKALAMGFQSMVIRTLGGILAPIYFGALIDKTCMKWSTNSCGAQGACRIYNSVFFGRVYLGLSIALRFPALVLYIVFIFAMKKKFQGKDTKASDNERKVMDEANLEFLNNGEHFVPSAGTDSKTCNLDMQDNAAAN
pIC50: −log10 of the molar value.
measured.quantity: pIC50

>>> print(df.to_string())
                                   molecule  measured
0  COC(=O)C1=CO[C@@H](C)[C@@H]2CN3CC[C@@]4(C(=O)Nc5ccccc54)[C@@H]3C[C@H]12 [isopteropodine]      4.61

---

biological target: MDR1 (Homo sapiens); construct: The cDNA encoding respective transporters were synthetized and cloned by GenScript; host or cells: HEK293 (lentiviral transduction), membrane vesicles; test: Vesicular transport inhibition assay, MDR1 membrane vesicles; type: biochemical; conditions: oxindole alkaloids; substrate NMQ; read-out: IC50 (95% CI of IC50)
Sequence (P08183 whole entry): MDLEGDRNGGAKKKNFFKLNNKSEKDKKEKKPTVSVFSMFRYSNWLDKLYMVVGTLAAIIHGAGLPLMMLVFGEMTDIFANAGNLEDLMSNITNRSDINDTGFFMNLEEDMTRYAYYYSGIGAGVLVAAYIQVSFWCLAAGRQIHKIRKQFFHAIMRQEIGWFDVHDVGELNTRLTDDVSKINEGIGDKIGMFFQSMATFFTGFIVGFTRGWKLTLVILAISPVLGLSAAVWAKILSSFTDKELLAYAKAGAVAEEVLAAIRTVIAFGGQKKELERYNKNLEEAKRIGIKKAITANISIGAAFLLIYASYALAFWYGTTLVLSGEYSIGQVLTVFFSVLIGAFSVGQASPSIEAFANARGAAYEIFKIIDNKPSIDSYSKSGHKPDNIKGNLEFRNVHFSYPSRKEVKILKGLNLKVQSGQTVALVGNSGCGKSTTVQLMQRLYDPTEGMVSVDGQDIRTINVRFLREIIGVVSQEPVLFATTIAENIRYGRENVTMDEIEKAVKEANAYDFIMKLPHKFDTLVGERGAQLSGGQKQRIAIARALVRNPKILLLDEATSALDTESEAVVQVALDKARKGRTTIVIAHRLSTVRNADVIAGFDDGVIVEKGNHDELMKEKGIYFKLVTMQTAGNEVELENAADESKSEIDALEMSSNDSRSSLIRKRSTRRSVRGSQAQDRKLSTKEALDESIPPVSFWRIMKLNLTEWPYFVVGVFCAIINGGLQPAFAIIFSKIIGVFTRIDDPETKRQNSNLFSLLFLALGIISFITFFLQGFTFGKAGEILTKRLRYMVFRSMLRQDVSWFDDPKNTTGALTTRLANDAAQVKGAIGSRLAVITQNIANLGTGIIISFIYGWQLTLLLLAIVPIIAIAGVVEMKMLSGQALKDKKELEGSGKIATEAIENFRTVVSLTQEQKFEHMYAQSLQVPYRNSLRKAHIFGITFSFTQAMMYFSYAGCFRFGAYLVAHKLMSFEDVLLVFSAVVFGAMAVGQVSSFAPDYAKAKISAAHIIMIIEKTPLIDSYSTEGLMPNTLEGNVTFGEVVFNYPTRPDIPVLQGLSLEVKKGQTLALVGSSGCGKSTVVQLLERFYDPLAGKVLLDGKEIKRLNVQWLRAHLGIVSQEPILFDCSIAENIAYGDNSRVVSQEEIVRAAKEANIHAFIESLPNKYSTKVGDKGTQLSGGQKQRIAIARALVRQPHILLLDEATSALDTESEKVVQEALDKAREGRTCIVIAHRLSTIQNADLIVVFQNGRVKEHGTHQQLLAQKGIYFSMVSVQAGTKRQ
pIC50: −log10 of the molar value.
Overview of recorded pIC50 for various compounds
measured.quantity: pIC50

>>> df
                           molecular_string  measured
0  COC(=O)C1=CO[C@@H](C)[C@H]2CN3CC[C@]4(C(=O)Nc5ccccc54)[C@@H]3C[C@H]12      4.55
1  COC(=O)C1=CO[C@@H](C)[C@@H]2CN3CC[C@@]4(C(=O)Nc5ccccc54)[C@@H]3C[C@H]12      4.55

---

molecular target: ENT1 (Homo sapiens); construct: expressed in transfected cells; host or cells: MDCKII (lentiviral transduction; cDNA synthesised by GenScript); assay: Uptake inhibition assay, ENT1-overexpressing MDCKII cells; format: cell-based; settings: oxindole alkaloids; substrate uridine; read-out: IC50 (95% CI of IC50)
Sequence (Q99808 whole entry): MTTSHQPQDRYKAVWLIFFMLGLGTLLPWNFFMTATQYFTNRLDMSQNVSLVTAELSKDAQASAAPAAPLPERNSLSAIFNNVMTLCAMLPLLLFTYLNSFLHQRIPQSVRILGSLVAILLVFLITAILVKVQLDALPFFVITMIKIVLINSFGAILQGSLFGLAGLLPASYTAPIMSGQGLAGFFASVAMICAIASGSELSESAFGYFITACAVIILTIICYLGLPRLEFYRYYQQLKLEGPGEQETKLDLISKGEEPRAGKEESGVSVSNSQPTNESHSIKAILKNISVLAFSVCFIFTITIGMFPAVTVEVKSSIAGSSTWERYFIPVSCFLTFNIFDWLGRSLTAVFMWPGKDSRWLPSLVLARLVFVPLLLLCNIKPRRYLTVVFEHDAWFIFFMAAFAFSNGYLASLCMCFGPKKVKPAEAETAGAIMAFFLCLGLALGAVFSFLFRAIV
pIC50: −log10 of the molar value.
measured.quantity: pIC50

>>> print(df.to_string())
                                   molecule  measured_quantity  measured
0  COC(=O)C1=CO[C@@H](C)[C@H]2CN3CC[C@]4(C(=O)Nc5ccccc54)[C@@H]3C[C@H]12 [mitraphylline]              pIC50      4.30
